Here the recorded inhibition is given for each entry.
Biological target: Solute carrier family 2, facilitated glucose transporter member 1 (Homo sapiens)
Assay: ST_JUDE_LEISH: Cytotoxicity at 2uM final concentration against transgenic Leishmania Mexicana promastigotes LmGLUT1 that are glucose transport deficient and complemented with the human glucose transporter GLUT1. Activity is measured by DNA content using SYBR green in vitro
Format: functional
Please respond with the number in % and leave the unit unwritten.

Here is how some compounds turned out for inhibition.
| COMPOUND | TARGET_OF_ASSAY | READING_UNIT | inhibition |
| --- | --- | --- | --- |
| COc1ccc(-c2nc3c(N)nc(N)nc3nc2-c2ccccc2Cl)cc1.COc1ccc(-c2nc3nc(N)nc(N)c3nc2-c2ccccc2Cl)cc1 | Solute carrier family 2, facilitated glucose transporter member 1 (Homo sapiens) | % | 9.91 |
| CN1CCC(NCc2ccc(-c3cccc(S(=O)(=O)NCc4ccccc4)c3)cc2)CC1 | Solute carrier family 2, facilitated glucose transporter member 1 (Homo sapiens) | % | 2.23 |
| N#Cc1cc(C(=O)c2cc(Cl)ccc2O)cn(-c2cc(Cl)cc(Cl)c2)c1=O | Solute carrier family 2, facilitated glucose transporter member 1 (Homo sapiens) | % | 2.16 |
| CN1CCCC1CCNCc1ccc(-c2ccc(CNCCc3ccccc3)cn2)cc1 (stereo not given) | Solute carrier family 2, facilitated glucose transporter member 1 (Homo sapiens) | % | 1.95 |

Next compound, please.
[Q] // lookup inhibition | system=Solute carrier family 2, facilitated glucose transporter member 1 (Homo sapiens) | key= CN(C)CCCn1c(C(=O)OC(c2ccccc2)c2ccccc2)cc2cc(OCc3ccccc3)ccc21
[A] -0.72

---

Target: Solute carrier family 2, facilitated glucose transporter member 1 (Homo sapiens) (UniProt P11166)
Sequence (P11166 whole entry): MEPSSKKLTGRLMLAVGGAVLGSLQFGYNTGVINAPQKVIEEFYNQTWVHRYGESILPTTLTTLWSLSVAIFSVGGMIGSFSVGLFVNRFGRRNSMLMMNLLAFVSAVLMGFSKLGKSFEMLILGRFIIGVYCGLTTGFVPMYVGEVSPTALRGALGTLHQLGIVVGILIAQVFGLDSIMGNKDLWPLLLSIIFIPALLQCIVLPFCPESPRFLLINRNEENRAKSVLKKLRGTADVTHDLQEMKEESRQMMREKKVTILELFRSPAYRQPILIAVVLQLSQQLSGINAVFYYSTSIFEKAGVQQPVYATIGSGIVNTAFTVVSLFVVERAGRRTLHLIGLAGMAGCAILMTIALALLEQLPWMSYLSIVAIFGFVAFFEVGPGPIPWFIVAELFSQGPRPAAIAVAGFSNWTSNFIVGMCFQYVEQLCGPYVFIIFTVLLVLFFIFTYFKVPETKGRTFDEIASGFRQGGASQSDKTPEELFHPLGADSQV
Assay: ST_JUDE_LEISH: Cytotoxicity at 2uM final concentration against transgenic Leishmania Mexicana promastigotes LmGLUT1 that are glucose transport deficient and complemented with the human glucose transporter GLUT1. Activity is measured by DNA content using SYBR green in vitro
Format: functional
TEST_READOUT: inhibition (%)
Please respond with the number in % and leave the unit unwritten.

| CPD_SMILES | READING_UNIT | inhibition |
| --- | --- | --- |
| CC(C)CNCc1cccc(-c2ccc(CNc3ccc(C(=O)c4ccccc4)cc3)cc2)c1 | % | 1.27 |
| O=S(=O)(Nc1cc2c(cc1O)CCN(C1CCC1)CC2)c1ccc(Oc2ccc(F)cc2)cc1 | % | 2.05 |
| FC(F)(F)c1cnc(Sc2nnc(-c3ccco3)o2)c(Cl)c1 | % | 17.1 |
| COc1cc(Cc2cnc(N)nc2N)cc(OCCCCCC(=O)O)c1OC | % | 6.91 |
| CCCN1CCC(NCc2cn(C)nc2-c2ccc(Oc3ccccc3)cc2)CC1 | % | 10.8 |

[Q] Would you mind telling me what inhibition value was observed for CCc1cccc(C)c1-n1nc(-c2cc(C(C)(C)C)oc2C)cc1N ?
[A] 2.34

[Q] Would you mind telling me what inhibition value was observed for Cc1cc2c(cc1Cl)N(C(=O)Nc1cc(F)cc(-c3cncnc3)c1)CC2 ?
[A] 9.04

[Q] Would you mind telling me what inhibition value was observed for Cc1cccn2c(=O)c3cc(C(=O)NC4CCCCC4)c(=N)n(CCCn4ccnc4)c3nc12 ?
[A] -2.65

[Q] Would you mind telling me what inhibition value was observed for OCCNc1nc(Nc2ccc(Cl)cc2)nc2ccccc12 ?
[A] 6.17

[Q] Would you mind telling me what inhibition value was observed for CNCCNCc1ccc(-c2ccc(-c3nc4cccc(C)c4[nH]3)s2)cc1 ?
[A] 2.93

Data origin: ChEMBL document CHEMBL3433997
